Hey, just so you know, these numbers are from ChEMBL document CHEMBL1201862.

Test system: IGROV-1
Assay: NCI tumour cell line growth inhibition, 48 h
Activity calls are given as the source filed them. Rule as the data show it: active = GI50 up to about 1.1 µM and inactive = higher. Where a SMILES comes first, the peptide text is derived from it. The star is where a group is joined. Boc = CC(C)(C)OC(=O)*; Bn = c1ccc(C*)cc1
Outcome codes: t = active, f = inactive

- compound: "COC(=O)C1=C(C(=O)OC)C(C(=O)OC)C(C(=O)OC)=C1C(=O)OC"
  discrete.label: "f"
- compound: "O=S1(=O)CCN(Cc2ccccc2)/C1=N\\S(=O)(=O)c1ccc(Cl)cc1"
  discrete.label: "f"
- compound: "O=C1CCSCCC(=O)Nc2ccccc2N1"
  discrete.label: "f"
- compound: "C/C(=N/NC(=S)N1CCCCC1)c1cccc(/C(C)=N\\NC(=S)N2CCCCC2)n1"
  discrete.label: "f"
- compound: "CCCCN(CCCC)C(=O)C(=O)C(C(=O)C(=O)OC)c1nc2ccccc2o1 (stereo not given)"
  discrete.label: "f"
- compound: "CC(OC(C)(C)C)[C@H](NC(=O)OCc1ccccc1)C(=O)NC(OCc1ccccc1)[C@H]1COC(C)(C)O1 (stereo not given in full)"
  discrete.label: "f"
- compound: "N#CCCN(CCC#N)c1ccc(/C=C2\\N=C(c3cc([N+](=O)[O-])ccc3Cl)N(S(=O)(=O)c3ccccc3)C2=O)cc1"
  discrete.label: "f"
- compound: "COc1c2c3c4c(c(OC)c(=O)c5c(O)cc(OC)c(c6c(OC)cc(O)c(c1=O)c63)c54)C(C(C)O)C2C(C)O (stereo not given)"
  discrete.label: "t"
- compound: "CN1CCC2(CC1)/C(=N/C1CCCCC1)NC(=O)N2c1ccccc1"
  discrete.label: "f"
- compound: "N#Cc1ccc(OCc2ccc3nc(-c4ccccc4)c(Cl)nc3c2)cc1"
  discrete.label: "f"
- compound: "CCCc1nc2c(n1CC)C(=O)c1ccccc1C2=O"
  discrete.label: "f"
- compound: "CCCN1C(=O)CN(S(=O)(=O)c2ccc(Cl)cc2)C1=O"
  discrete.label: "f"
- compound: "COC(=O)C(CC(C)C)NC(=O)CNC(=O)C(Cc1ccc(OCc2ccccc2)cc1)NC(=O)C(COCc1ccccc1)NC(=O)OC(C)(C)C (stereo not given) (Boc-S(Bn)Y(Bn)GL-OMe; configuration not given here)"
  discrete.label: "f"
- compound: "COc1cccc(C=C2N=C(c3ccccc3)N(n3c(-c4ccccc4)nc4ccccc4c3=O)C2=O)c1"
  discrete.label: "f"
- compound: "CC(=O)c1ccc2c(c1)oc(=O)n2CCN(C)C"
  discrete.label: "f"
- compound: "CC1CC(=O)c2c(ccc3c2C(=O)c2cccc(O)c2C3=O)C1 (stereo not given)"
  discrete.label: "f"
- compound: "Clc1ccc2c(Cl)ncnc2c1"
  discrete.label: "f"
- compound: "COc1cc(C2C(Cl)C(=O)N2NC(=O)c2ccc(NC(C)=O)cc2)cc(OC)c1OC (stereo not given)"
  discrete.label: "f"
- compound: "C=C1CC2C[C@H](OS(=O)(=O)c3ccc(C)cc3)C(C1)N2C (stereo not given in full)"
  discrete.label: "f"
- compound: "CCOC(=O)Oc1ccc2c(c1)c(=O)c1c(NCCCN(CC)CC)ccc3nnn2c31"
  discrete.label: "f"
- compound: "CC(C)(CO)NC(=O)c1cccc(C(=O)NC(C)(C)CO)c1Br"
  discrete.label: "f"
- compound: "CCCCC(=O)NC1(c2cc3ccccc3s2)CCCCC1"
  discrete.label: "f"
- compound: "Cc1ccc(S(=O)(=O)NC(=O)Nc2c(S(N)(=O)=O)cc(S(N)(=O)=O)c(Cl)c2Cl)cc1"
  discrete.label: "f"
- compound: "COc1cc(O)c(Cc2ccccc2O)c(O)c1C(=O)CCc1ccccc1"
  discrete.label: "f"
- compound: "CCCSc1ccc2[nH]c(N3C(=O)/C(=C/c4ccc(O)c(OC)c4)N=C3c3ccccc3)cc2c1"
  discrete.label: "f"
- compound: "CSC1(C(=O)O)C2CCC3C2CCC31 (stereo not given)"
  discrete.label: "f"
- compound: "Cc1nn(-c2ccccc2)c2c1CC(=O)Nc1ccccc1-2"
  discrete.label: "f"
- compound: "COc1cccc2c1OC1(C=C2)Oc2ccccc2C(=O)N1C (stereo not given)"
  discrete.label: "f"
- compound: "COC(=O)c1cc(O)ccc1O [METHYL 2,5-DIHYDROXYBENZOATE]"
  discrete.label: "f"
- compound: "S=C1CC(c2ccc(Cl)cc2)Sc2ccccc2N1 (stereo not given)"
  discrete.label: "f"
- compound: "Cc1ccc(S(=O)(=O)Nc2cc(O)nc3c2CCC3)cc1"
  discrete.label: "f"
- compound: "CC(=O)O[C@H]1CC[C@@]2(C)C(=CC[C@H]3[C@@H]4C[C@H](N5CCN(C)CC5)[C@H](OC(C)=O)[C@@]4(C)CC[C@@H]32)C1"
  discrete.label: "f"
- compound: "O=c1[nH]/c(=C/c2ccc(OCc3ccccc3)cn2)c(=O)[nH]/c1=C/c1ccccc1"
  discrete.label: "t"
- compound: "COc1cccc2c1C(=N)c1c(O)c3c(c(O)c1C2=O)C[C@@](O)(C(C)=O)C[C@@H]3OC1CC(N)C(O)C(C)O1 (stereo not given in full)"
  discrete.label: "f"
- compound: "CC(C)(C)C(=O)CC1=Nc2ccccc2SC1(O)CC(=O)C(C)(C)C (stereo not given)"
  discrete.label: "f"
- compound: "CN(C)CCCNC(=O)c1c(-c2cccnc2)cnc2ccccc12"
  discrete.label: "f"
- compound: "CCCCCCCCCCCCO[PH](=O)OCCCCCCCCCCCC"
  discrete.label: "f"
- compound: "O=C1c2sccc2C(=O)c2c(CO)csc21"
  discrete.label: "f"
- compound: "NC(=O)C(=O)C1CCC2=C(Sc3ccccc3N2)C1=O (stereo not given)"
  discrete.label: "f"
- compound: "O=C(N/C(=C\\c1ccc(/C=C(\\NC(=O)c2ccccc2)c2nc3ccccc3s2)cc1)c1nc2ccccc2s1)c1ccccc1"
  discrete.label: "f"
